tested on: MV4-11 (leukemia); assay: Cell proliferation inhibition in vitro, CellTiter-Glo, MV4-11; type: cell-based; details: Homo sapiens; MV4-11 cells, 120 hours, CellTiter-Glo; read-out: MV4-11/IC50/μM
For each record, check the reported IC50: if it is below 0.5 µM write 1, else write 0.

Problem: Identify whether the compound Cc1nn(-c2cncc(C(N)=O)c2)c(C)c1-c1cc(N2CCOC[C@H]2C)nc(-c2cccc3[nH]ccc23)n1 [Compound A24] records IC50 below 0.5 µM.
Result: 1

Problem: Identify whether the compound CC#Cc1cncc(-n2nc(C)c(-c3cc(N4CCOC[C@H]4C)nc(-n4c(NC)nc5ccccc54)n3)c2C)c1 [Compound B8] records IC50 below 0.5 µM.
Result: 0

Problem: Identify whether the compound Cc1nn(-c2cnccn2)c(C)c1-c1cc(N2CCOC[C@H]2C)nc(-c2cc(F)cc3[nH]ccc23)n1 [Compound A25] records IC50 below 0.5 µM.
Result: 1

Problem: Identify whether the compound Cc1nn(-c2ccnnc2)c(C)c1-c1cc(N2CCOC[C@H]2C)nc(-c2cc(F)cc3[nH]ccc23)n1 [Compound A15] records IC50 below 0.5 µM.
Result: 1

Problem: Identify whether the compound CNc1nc2ccccc2n1-c1nc(-c2c(C)nn(-c3ccc(OC)nc3)c2C)cc(N2CCOC[C@H]2C)n1 [Compound B7] records IC50 below 0.5 µM.
Result: 0

Problem: Identify whether the compound Cc1nn(-c2ccc(F)nc2)c(C)c1-c1cc(N2CCOC[C@H]2C)nc(-c2cc(F)cc3[nH]ccc23)n1 [Compound A6] records IC50 below 0.5 µM.
Result: 0

Problem: Identify whether the compound Cc1nn(-c2cncc(Cl)c2)c(C)c1-c1cc(N2CCOC[C@H]2C)nc(-c2ccnc3[nH]ccc23)n1 [Compound A18] records IC50 below 0.5 µM.
Result: 1

###

assay: In vitro stability in human liver microsome; format: in vitro ADME; details: liver microsomes, read-out: Human liver microsome t1/2
Answer each item with its documented half-life.
Return type: number; implicit unit min.

The compound identified as Cc1nn(-c2cncc(F)c2)c(C)c1-c1cc(N2CCOC[C@H]2C)nc(-c2cc(F)cc3[nH]ccc23)n1 [Compound A11] registered its half-life at 44

The compound identified as Cc1nn(-c2cncc(F)c2)c(C)c1-c1cc(N2CCOC[C@H]2C)nc(-c2cccc3[nH]ccc23)n1 [Compound A17] registered its half-life at 65

###

system: TOV21G (ovarian cancer); assay: Cell proliferation inhibition in vitro, CellTiter-Glo, TOV21G; format: cell-based; details: Homo sapiens; TOV21G cells, 120 hours, CellTiter-Glo; read-out: TOV21G/IC50/μM
For each record, check the reported IC50: if it is below 0.4 µM write Fulfilled, else write Not fulfilled.

Problem: Identify whether the compound Cc1nn(-c2cncc(F)c2)c(C)c1-c1cc(C23CCOCC2C3)nc(-c2cc(F)cc3[nH]ccc23)n1 (stereo not shown) records IC50 below 0.4 µM.
Result: Not fulfilled

Problem: Identify whether the compound Cc1ncccc1-n1nc(C)c(-c2cc(N3CCOC[C@H]3C)nc(-c3cc(F)cc4[nH]ccc34)n2)c1C records IC50 below 0.4 µM.
Result: Fulfilled

Problem: Identify whether the compound Cc1nn(-c2cncc(F)c2)c(C)c1-c1cc(N2CCOC[C@H]2C)nc(-c2cc(CO)cc3[nH]ccc23)n1 records IC50 below 0.4 µM.
Result: Not fulfilled

Problem: Identify whether the compound CNc1nc2ccccc2n1-c1nc(-c2c(C)nn(-c3cnc(N)c(F)c3)c2C)cc(N2CCOC[C@H]2C)n1 records IC50 below 0.4 µM.
Result: Fulfilled

Problem: Identify whether the compound Cc1nn(-c2cncc(F)c2)c(C)c1-c1cc(C23CCOCC2C3)nc(-c2cccc3[nH]ccc23)n1 (stereo not shown) records IC50 below 0.4 µM.
Result: Not fulfilled

Problem: Identify whether the compound CNc1nc2ccccc2n1-c1nc(-c2c(C)nn(-c3cncc(C(N)=O)c3)c2C)cc(N2CCOC[C@H]2C)n1 records IC50 below 0.4 µM.
Result: Fulfilled
